System: LXRb:RXRa (NR concentration 270 nM, RXRa partner concentration 90 nM)
Protocol Details: PBM binding z-score (relative to random genomic background probes); higher = stronger binding; sequences stand for … in GC…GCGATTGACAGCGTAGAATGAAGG
Dear colleague, classification is by PBM binding z-score, with ranges listed here: lower segment = under 0.4, middle segment = from 0.4 up to 2, upper segment = 2 and over

CAGCCTAGGCCAGGGCCAGTATAGGAGGAACGTT: lower segment
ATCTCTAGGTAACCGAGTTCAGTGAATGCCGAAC: middle segment
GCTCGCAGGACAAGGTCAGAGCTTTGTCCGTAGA: middle segment
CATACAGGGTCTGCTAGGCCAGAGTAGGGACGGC: lower segment
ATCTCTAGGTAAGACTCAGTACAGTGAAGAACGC: lower segment
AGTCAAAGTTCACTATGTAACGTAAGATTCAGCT: upper segment
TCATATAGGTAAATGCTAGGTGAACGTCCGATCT: middle segment
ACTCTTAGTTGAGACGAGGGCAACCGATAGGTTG: lower segment
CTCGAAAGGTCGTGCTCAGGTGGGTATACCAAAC: upper segment
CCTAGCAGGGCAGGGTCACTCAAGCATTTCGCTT: upper segment
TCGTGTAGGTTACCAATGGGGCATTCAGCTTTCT: middle segment
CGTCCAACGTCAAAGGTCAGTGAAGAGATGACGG: upper segment
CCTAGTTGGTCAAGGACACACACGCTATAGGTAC: middle segment

====

Tested on: PXR homodimer (NR concentration 270 nM)
Protocol Details: PBM binding z-score (relative to random genomic background probes); higher = stronger binding; sequences stand for … in GC…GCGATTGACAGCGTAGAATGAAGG
Attribute Measured: PBM binding z-score

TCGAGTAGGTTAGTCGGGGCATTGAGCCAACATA: -0.392
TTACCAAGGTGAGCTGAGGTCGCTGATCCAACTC: -0.341
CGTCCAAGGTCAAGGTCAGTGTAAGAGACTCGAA: 1.07
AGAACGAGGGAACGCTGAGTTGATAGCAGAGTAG: -0.229
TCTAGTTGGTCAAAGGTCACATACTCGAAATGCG: 1.83
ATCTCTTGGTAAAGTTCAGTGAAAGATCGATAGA: 2.31
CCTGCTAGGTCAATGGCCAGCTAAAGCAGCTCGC: -0.775
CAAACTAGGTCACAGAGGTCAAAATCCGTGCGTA: 10.3
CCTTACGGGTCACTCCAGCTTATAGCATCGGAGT: 0.285
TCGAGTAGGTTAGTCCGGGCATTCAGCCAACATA: -0.362
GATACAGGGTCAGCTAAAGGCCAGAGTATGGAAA: -0.205
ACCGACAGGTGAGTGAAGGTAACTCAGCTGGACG: -0.481
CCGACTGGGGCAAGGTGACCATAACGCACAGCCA: -0.578
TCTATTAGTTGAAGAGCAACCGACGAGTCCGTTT: 0.467
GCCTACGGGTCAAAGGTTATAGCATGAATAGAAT: 0.219
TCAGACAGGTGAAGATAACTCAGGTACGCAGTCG: 0.241
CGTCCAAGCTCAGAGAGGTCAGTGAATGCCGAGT: 0.893
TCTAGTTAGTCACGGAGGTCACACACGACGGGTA: 1.01
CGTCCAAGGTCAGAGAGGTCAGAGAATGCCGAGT: 11.8
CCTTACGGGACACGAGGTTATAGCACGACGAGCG: 0.477
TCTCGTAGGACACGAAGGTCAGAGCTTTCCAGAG: -0.171
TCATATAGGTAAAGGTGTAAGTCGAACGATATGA: -0.297
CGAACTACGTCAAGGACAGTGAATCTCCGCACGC: 0.128
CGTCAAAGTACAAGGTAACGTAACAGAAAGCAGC: -0.131
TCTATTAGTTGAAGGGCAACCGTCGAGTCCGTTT: 0.911
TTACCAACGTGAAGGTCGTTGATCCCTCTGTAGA: 0.561
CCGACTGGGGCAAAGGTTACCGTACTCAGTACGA: -0.837
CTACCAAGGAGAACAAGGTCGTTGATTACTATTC: 1.05
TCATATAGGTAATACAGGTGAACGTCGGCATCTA: 0.663
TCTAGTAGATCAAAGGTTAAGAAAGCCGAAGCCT: -0.328

====

System: PPARg:RXRa 270nM:90nM, anti-RXR (NR concentration 270 nM, RXRa partner concentration 90 nM)
Protocol Details: PBM binding z-score (relative to random genomic background probes); higher = stronger binding; sequences stand for … in GC…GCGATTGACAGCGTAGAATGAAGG
Please mark class 1 if the recorded PBM binding z-score is equal to or greater than 1, and class 0 if it falls below.

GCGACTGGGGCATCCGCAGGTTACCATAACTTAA: class 0
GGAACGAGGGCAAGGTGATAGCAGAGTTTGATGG: class 1
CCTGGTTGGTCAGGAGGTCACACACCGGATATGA: class 1
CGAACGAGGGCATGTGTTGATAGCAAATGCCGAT: class 1
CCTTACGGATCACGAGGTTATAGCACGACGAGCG: class 0
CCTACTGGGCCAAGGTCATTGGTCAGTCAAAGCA: class 1

====

System: FXR:RXRa (NR concentration 270 nM, RXRa partner concentration 90 nM)
Protocol Details: PBM binding z-score (relative to random genomic background probes); higher = stronger binding; sequences stand for … in GC…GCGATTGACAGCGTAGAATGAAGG
Here, each record is paired with measured PBM binding z-score data.
Attribute Measured: PBM binding z-score

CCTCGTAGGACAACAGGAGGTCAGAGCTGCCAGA: 0.951
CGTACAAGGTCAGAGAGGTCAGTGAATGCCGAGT: 6.42
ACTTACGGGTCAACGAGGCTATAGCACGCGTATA: 7.11
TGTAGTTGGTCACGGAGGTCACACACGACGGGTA: 3.41
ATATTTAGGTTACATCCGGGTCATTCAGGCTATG: 2.65

====

System: PPARa:RXRa (NR concentration 270 nM, RXRa partner concentration 90 nM)
Protocol Details: PBM binding z-score (relative to random genomic background probes); higher = stronger binding; sequences stand for … in GC…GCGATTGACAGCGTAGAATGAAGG
Here, each record is paired with measured PBM binding z-score data.
Attribute Measured: PBM binding z-score

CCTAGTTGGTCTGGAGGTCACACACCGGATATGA: 4.17
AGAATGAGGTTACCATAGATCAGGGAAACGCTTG: 3.14
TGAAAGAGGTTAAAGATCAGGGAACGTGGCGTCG: 4.59
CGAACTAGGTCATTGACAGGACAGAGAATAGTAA: 4.71
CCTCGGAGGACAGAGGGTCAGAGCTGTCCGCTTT: 1.2
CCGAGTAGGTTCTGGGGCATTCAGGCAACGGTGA: 0.158
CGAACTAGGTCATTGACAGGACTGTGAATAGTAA: 4.71
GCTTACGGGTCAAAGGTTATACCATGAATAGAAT: 7.21
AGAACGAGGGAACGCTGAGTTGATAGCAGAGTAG: -0.499
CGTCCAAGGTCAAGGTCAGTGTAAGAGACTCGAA: 5.87
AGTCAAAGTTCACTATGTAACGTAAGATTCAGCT: 3.85
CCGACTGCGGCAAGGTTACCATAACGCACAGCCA: 1.02
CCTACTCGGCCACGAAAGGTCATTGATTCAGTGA: 4.36
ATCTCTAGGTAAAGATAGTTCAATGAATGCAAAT: 1.15
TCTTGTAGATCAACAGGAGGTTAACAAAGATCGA: 1.69
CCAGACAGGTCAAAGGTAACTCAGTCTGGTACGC: 5.83
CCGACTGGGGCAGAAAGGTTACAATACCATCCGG: 2.02
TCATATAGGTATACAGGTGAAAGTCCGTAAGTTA: 1.9
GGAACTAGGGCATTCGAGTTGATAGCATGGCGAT: 2.54
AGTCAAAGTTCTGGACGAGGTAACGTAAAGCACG: 0.00286
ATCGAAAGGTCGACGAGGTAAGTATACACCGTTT: 4.09
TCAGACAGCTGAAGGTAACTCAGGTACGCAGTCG: 0.454
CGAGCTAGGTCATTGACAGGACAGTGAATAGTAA: 3.33
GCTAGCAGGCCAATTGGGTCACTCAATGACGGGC: 1.83
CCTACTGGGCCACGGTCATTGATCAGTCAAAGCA: 1.3

====

Test system: PPARg DBDmut IVT, anti-PPARg (DBD mutation: PPARg1 K132A/R137A, NR concentration 270 nM)
Protocol Details: PBM binding z-score (relative to random genomic background probes); higher = stronger binding; sequences stand for … in GC…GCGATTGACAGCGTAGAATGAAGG
Please mark satisfied if the recorded PBM binding z-score is equal to or greater than 0.08, and not satisfied if it falls below.

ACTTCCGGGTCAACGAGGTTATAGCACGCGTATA: satisfied
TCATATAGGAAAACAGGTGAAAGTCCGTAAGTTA: satisfied
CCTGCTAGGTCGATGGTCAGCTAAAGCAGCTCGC: not satisfied
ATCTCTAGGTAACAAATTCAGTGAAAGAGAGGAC: satisfied
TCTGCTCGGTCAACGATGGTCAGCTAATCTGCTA: not satisfied
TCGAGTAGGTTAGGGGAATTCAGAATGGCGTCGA: not satisfied
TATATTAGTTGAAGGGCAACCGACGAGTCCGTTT: satisfied
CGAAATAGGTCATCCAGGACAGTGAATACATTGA: satisfied
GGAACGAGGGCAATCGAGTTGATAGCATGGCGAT: not satisfied
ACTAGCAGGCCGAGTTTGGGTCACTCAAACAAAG: not satisfied
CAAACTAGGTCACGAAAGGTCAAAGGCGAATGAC: satisfied
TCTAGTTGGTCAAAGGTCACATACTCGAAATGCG: satisfied
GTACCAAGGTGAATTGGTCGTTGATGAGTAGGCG: not satisfied
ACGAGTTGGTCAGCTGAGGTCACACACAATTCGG: satisfied
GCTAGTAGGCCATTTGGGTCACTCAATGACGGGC: not satisfied
ACTAGCAGGCCAAGTTTGAGTCACTCAAACAAAG: satisfied
